Origin of the recorded values: the NIST ThermoML archive (doi:10.1016/j.jct.2018.09.036)

# method notes: mn = molality of the nth substance listed, in mol/kg
# condition parameters: 298.15 K; 99.7 kPa; Liquid; Vibrating tube method; m1 = 0.3
Recorded mass density for the following compounds
Supply the numeric figure in kg/m3, leaving out any unit text.

compound="NCC(=O)O [2-aminoacetic acid] + O" endpoint_value=1006.42
compound="CCCCn1cc[n+](C)c1.[Br-] [1-butyl-3-methylimidazolium bromide] + O" endpoint_value=1011.43

# lookup: mass density of CCn1cc[n+](C)c1.[Br-] [1-ethyl-3-methylimidazolium bromide] + O
1012.56

# lookup: mass density of CCCCCCn1cc[n+](C)c1.[Br-] [3-hexyl-1-methyl-1H-imidazolium bromide] + O
1010.37

###

# method notes: mn = molality of the nth substance listed, in mol/kg
# condition parameters: 298.15 K; 99.7 kPa; Liquid; Vibrating tube method; m1 = 0.15
Recorded mass density for the following molecules
Supply the numeric figure in kg/m3, leaving out any unit text.

Example entries begin here.
molecule="NCC(=O)O [2-aminoacetic acid] + O" readout_label="mass density" quantity_unit=kg/m3 endpoint_value=1001.78
molecule="CCn1cc[n+](C)c1.[Br-] [1-ethyl-3-methylimidazolium bromide] + O" readout_label="mass density" quantity_unit=kg/m3 endpoint_value=1004.96

# lookup: mass density of CCCCCCn1cc[n+](C)c1.[Br-] [3-hexyl-1-methyl-1H-imidazolium bromide] + O
1003.87

# lookup: mass density of CCCCn1cc[n+](C)c1.[Br-] [1-butyl-3-methylimidazolium bromide] + O
1004.39

###

Recorded viscosity for the following compounds
# method notes: mn = molality of the nth substance listed, in mol/kg
# condition parameters: 298.15 K; 99.7 kPa; Liquid; Falling or rolling sphere viscometry; m1 = 0.3
Supply the numeric figure in mPa·s, leaving out any unit text.

Example entries begin here.
compound="CCCCn1cc[n+](C)c1.[Br-] [1-butyl-3-methylimidazolium bromide] + O" readout_label=viscosity quantity_unit=mPa·s endpoint_value=0.974
compound="CCn1cc[n+](C)c1.[Br-] [1-ethyl-3-methylimidazolium bromide] + O" readout_label=viscosity quantity_unit=mPa·s endpoint_value=0.93
compound="NCC(=O)O [2-aminoacetic acid] + O" readout_label=viscosity quantity_unit=mPa·s endpoint_value=0.927

# lookup: viscosity of CCCCCCn1cc[n+](C)c1.[Br-] [3-hexyl-1-methyl-1H-imidazolium bromide] + O
1.018

###

Recorded viscosity for the following molecules
# method notes: mn = molality of the nth substance listed, in mol/kg
# condition parameters: 298.15 K; 99.7 kPa; Liquid; Falling or rolling sphere viscometry; m1 = 0.15
Supply the numeric figure in mPa·s, leaving out any unit text.

Example entries begin here.
molecule="CCCCCCn1cc[n+](C)c1.[Br-] [3-hexyl-1-methyl-1H-imidazolium bromide] + O" readout_label=viscosity endpoint_value=0.947
molecule="CCCCn1cc[n+](C)c1.[Br-] [1-butyl-3-methylimidazolium bromide] + O" readout_label=viscosity endpoint_value=0.922
molecule="CCn1cc[n+](C)c1.[Br-] [1-ethyl-3-methylimidazolium bromide] + O" readout_label=viscosity endpoint_value=0.899

# lookup: viscosity of NCC(=O)O [2-aminoacetic acid] + O
0.908
